measurement-setup: in methanol, 302.65 K
outcome-measure: solubility (mole fraction)
Note: the reply should be a number with no unit written.

Asked: Quick one: solubility (mole fraction) for C[C@@H](O[C@H]1OCCN(Cc2n[nH]c(=O)[nH]2)[C@H]1c1ccc(F)cc1)c1cc(C(F)(F)F)cc(C(F)(F)F)c1 ?
Given back: 0.00495

###

measurement-setup: in ethanol, 324.85 K
outcome-measure: solubility (mole fraction)
Answer field: number only, no words.

Asked: Given the molecule C[C@@H](O[C@H]1OCCN(Cc2n[nH]c(=O)[nH]2)[C@H]1c1ccc(F)cc1)c1cc(C(F)(F)F)cc(C(F)(F)F)c1 , what is its reported solubility (mole fraction)?
Given back: 0.00505
